Target: 5-hydroxytryptamine receptor 1A (Rattus norvegicus, UniProt P19327)
Sequence (P19327 whole entry): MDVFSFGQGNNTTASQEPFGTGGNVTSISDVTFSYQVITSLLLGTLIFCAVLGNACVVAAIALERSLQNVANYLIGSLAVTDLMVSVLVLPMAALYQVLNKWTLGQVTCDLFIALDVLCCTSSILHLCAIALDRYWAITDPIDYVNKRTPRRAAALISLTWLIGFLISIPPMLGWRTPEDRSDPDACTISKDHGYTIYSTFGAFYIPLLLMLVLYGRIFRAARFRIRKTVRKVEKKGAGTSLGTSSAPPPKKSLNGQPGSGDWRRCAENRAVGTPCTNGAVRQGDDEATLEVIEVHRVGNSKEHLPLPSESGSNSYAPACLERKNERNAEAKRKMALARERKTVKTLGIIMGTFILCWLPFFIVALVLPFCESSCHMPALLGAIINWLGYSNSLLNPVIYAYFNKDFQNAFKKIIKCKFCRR
Record: compiled Ki on 5-hydroxytryptamine receptor 1A (Rattus norvegicus, UniProt P19327) from multiple reports.
Give just the number in nM; leave the unit off.

Supply reported Ki belonging to this compound: O=C(NCCCN1CCC(c2nc3ccccc3o2)CC1)C1COc2ccccc2O1 (stereo not given)
84

Supply reported Ki belonging to this compound: Cl.O=C1C2C3CCC(C4CCC43)C2C(=O)N1CCCCN1CCN(c2ncccn2)CC1 (stereo not given)
1

Supply reported Ki belonging to this compound: COc1ccc2c(c1)CCC=C2CCCN1CCN(c2ccccc2OC)CC1
1.78

Supply reported Ki belonging to this compound: C1=C(CCN2CCN(c3cccc4c3OCCO4)CC2)c2ccccc2C1
0.794

Supply reported Ki belonging to this compound: COc1ccc2c(c1OCCNC[C@@H]1COc3ccccc3O1)NCC2
219

Supply reported Ki belonging to this compound: COc1ccc(C(=O)N2CCC(CNCc3cccc(-n4cccn4)n3)CC2)cc1Cl
9.12

Supply reported Ki belonging to this compound: COc1ccccc1N1CCN(C2CCC(N3C(=O)c4ccccc4C3=O)CC2)CC1 (stereo not given)
8

Supply reported Ki belonging to this compound: O=C1C2C3CCCC(CC3)C2C(=O)N1CCCCN1CCN(c2cncc(Cl)n2)CC1 (stereo not given)
162

Supply reported Ki belonging to this compound: Clc1ccc(CN2CCC(CNCc3cccc(-n4cccn4)n3)CC2)cc1Cl
17.8

----------
Record: compiled Ki on UniProt P19327 from multiple reports.
Give just the number in nM; leave the unit off.

Given COc1ccccc1N1CCN(CCNC(=O)[C@@H]2CCC(=O)N2C(=O)C2CCCCC2)CC1 , report its Ki on UniProt P19327.
1000

Given CCCOc1nc2c(c(=O)n(C)c(=O)n2C)n1CCCN1CCc2ccccc2C1 , report its Ki on UniProt P19327.
1010

Given c1ccc(CCN2CCN(c3cccc4ccoc34)CC2)cc1 , report its Ki on UniProt P19327.
0.37

Given CCCCCCCc1ccc(C(=O)N(CCN2CCN(c3ccccc3OC)CC2)c2ccccn2)cc1 , report its Ki on UniProt P19327.
81.8

Given O=S(=O)(NCCCCCN1CCN(c2ccc(Cl)cc2)CC1)c1cnc2ccccc2c1 , report its Ki on UniProt P19327.
5800

Given CCCN(CCC)C1COc2c(cccc2C(=O)c2ccccc2OC)C1 (configuration not stated) , report its Ki on UniProt P19327.
60.8

Given Cc1ccc(-c2nn(CCN3CCN(c4ccccc4OC(C)C)CC3)c(=O)c3ccccc23)cc1 , report its Ki on UniProt P19327.
1290

Given O=C(CCCN1CCN(c2cccc3c2OCCO3)CC1)c1ccccc1 , report its Ki on UniProt P19327.
0.67

Given Cc1cccc(N2CCN(CCCOc3ccc(=O)n(-c4ccc(Cl)c(Cl)c4)n3)CC2)c1C , report its Ki on UniProt P19327.
5530

Given Cn1ccc2ccc(OCCCN3CCC(c4noc5cc(F)ccc45)CC3)cc2c1=O , report its Ki on UniProt P19327.
12.1

Given COc1cccc2c1CC(N1CCCC1)CO2 (configuration not stated) , report its Ki on UniProt P19327.
3.47

Given Cn1c(=O)c2c(nc3n(CCCCCN4CCN(c5ccccc5O)CC4)c(=O)ccn23)n(C)c1=O , report its Ki on UniProt P19327.
2

Given CC(C)NC(=O)c1ccc(CN2CCN(c3ccccc3OC(C)C)CC2)n1C.O=C(O)CCC(=O)O , report its Ki on UniProt P19327.
48

Given CN1CCN(c2nc(-c3ccccc3)cc(-c3ccoc3)n2)CC1 , report its Ki on UniProt P19327.
1340

Given CCOc1ccccc1N1CCN(CCNC(=O)c2ccccn2)CC1 , report its Ki on UniProt P19327.
55.4

Given Clc1ccc(N2CCN(Cc3cnn(-c4ccc(Cl)cc4)c3)CC2)cc1 , report its Ki on UniProt P19327.
620

Given CCCCCc1ccc(C(=O)N(CCN2CCN(c3ccccc3OC)CC2)c2ccccn2)cc1 , report its Ki on UniProt P19327.
75

Given COc1ccccc1N1CCN(CCn2nc3ccccc3n2)CC1 , report its Ki on UniProt P19327.
41

Given c1cnc(N[C@H]2CC[C@H](CCN3CCc4ccccc4C3)CC2)nc1 , report its Ki on UniProt P19327.
44

Given O=C1C2CCCN2C(=O)N1CCCCNCCOc1ccccc1Br (configuration not stated) , report its Ki on UniProt P19327.
62

Given O=C(c1ccc(Cl)c(Cl)c1)N1CCC(CNCc2cccc(-n3cccn3)n2)CC1 , report its Ki on UniProt P19327.
1.66

Given CCCN(C/C=C/I)C1COc2ccc(O)cc2C1 (configuration not stated) , report its Ki on UniProt P19327.
619

Given O=C1C2CCCN2C(=O)N1CN1CCN(c2cccc3ccccc23)CC1 (configuration not stated) , report its Ki on UniProt P19327.
10.4

Given CCCCOc1ccccc1N1CCN(CCCCN2C(=O)C3CCCCN3C2=O)CC1.Cl (configuration not stated) , report its Ki on UniProt P19327.
1.2

Given O=C1C2CCCCN2C(=O)N1CCCCNCC1CCc2ccccc2O1 (configuration not stated) , report its Ki on UniProt P19327.
2.4

Given COc1ccccc1N1CCN([C@H]2CC[C@H](N3C(=O)CCC3=O)CC2)CC1 , report its Ki on UniProt P19327.
15.2

Given COc1ccc(N2CCN(CCCCOc3ccc4c(C)cc(=O)oc4c3)CC2)cc1 , report its Ki on UniProt P19327.
530

Given COc1cccc(-c2ccccc2)c1OCCNC[C@H]1COc2ccccc2O1 , report its Ki on UniProt P19327.
6.92

Given COc1ccccc1N1CCN(CCCCN2CC3CCCN3C2)CC1 (configuration not stated) , report its Ki on UniProt P19327.
17.5

Given CN1CCc2ccc3c4c2[C@H]1Cc1cccc(c1-4)[C@@H]3O , report its Ki on UniProt P19327.
1210

Given O=c1[nH]c2c(-c3ccccc3Cl)c[nH]c2c(=O)n1CCN1CCN(c2ccccc2Cl)CC1 , report its Ki on UniProt P19327.
81.5

Given Cc1ccc2oc(-c3ccc(OCCCN4CCC(c5noc6cc(F)ccc56)CC4)cc3)nc2c1 , report its Ki on UniProt P19327.
76.3

Given O=C(CCN1CCN(c2ccccc2)CC1)c1cc2c3c(c1)CCC(=O)N3CCC2 , report its Ki on UniProt P19327.
1860

Given O=C(NC1CCN(CCc2cccc(F)c2)C1)C12CC3CC(CC(C3)C1)C2 (configuration not stated) , report its Ki on UniProt P19327.
14

Given COc1ccccc1N1CCN(CCCSc2nc3sc(C)c(C)c3c(=O)n2N)CC1 , report its Ki on UniProt P19327.
0.16

Given O=C1C2CCCN2C(=O)N1CCCCNCCOc1cccc(-c2ccccc2)c1 (configuration not stated) , report its Ki on UniProt P19327.
72

Given O=C1NC2(CCCc3ccccc32)C(=O)N1CCCCN1CCN(c2cccc(Cl)c2)CC1 (configuration not stated) , report its Ki on UniProt P19327.
15

Given COc1ccccc1N1CCN(CCNC(=O)Cn2nc(-n3ccnc3)ccc2=O)CC1 , report its Ki on UniProt P19327.
2070

Given Cc1cccc(N2CCN(CCCNC(=O)c3ccccn3)CC2)c1C , report its Ki on UniProt P19327.
88.7
